Tested on: Staphylococcus aureus
Experiment: microbe, parasite or virus in culture
Conditions: 4880/C, 24 h
Description: Antibacterial activity against wild type Staphylococcus aureus 4880/C assessed as reduction in microbial growth incubated for 24 hrs by microdilution assay
Please respond with Yes when measured MIC is strictly beneath 0.5 mg/L, and with No in all other cases.

Below are worked cases with known answers.
>  <compound>
CC[C@H]1OC(=O)[C@H](C)[C@@H](O[C@H]2C[C@@](C)(OC)[C@@H](O)[C@H](C)O2)[C@H](C)[C@@H](O[C@@H]2O[C@H](C)C[C@H](N(C)C)[C@H]2O)[C@](C)(O)C[C@@H](C)C(=O)[C@H](C)[C@@H](O)[C@]1(C)O

>  <assigned label>
Yes

$$$$
>  <compound>
O=C(O)c1cn(C2CC2)c2cc(N3CCNCC3)c(F)cc2c1=O

>  <assigned label>
Yes

$$$$

In plain terms, does CCCC/C=C\CCOP(=O)(CCN(CCCN)CCCN)OCCCCCOP(=O)(CCN(CCCN)CCCN)OCC/C=C\CCCC.Cl.Cl.Cl.Cl.Cl.Cl (stereo not given) come in under 0.5 mg/L for MIC?
No

Field entry: CCC[C@@H]1C[C@@H](C(=O)N[C@@H]([C@H]2O[C@H](SC)[C@H](O)[C@@H](O)[C@H]2O)[C@H](C)Cl)N(C)C1
Yes

---

Experiment: Gradient chromatographic hydrophobicity index of the compound at pH 3.7 by HPLC analysis
Type: ADME
endpoint: CHI
Lab note: record just the number, no unit beside it.

Below are worked cases with known answers.
>  <molecule>
CCC/C=C\CCOP(=O)(CCN(CCCN)CCCN)OCCCOP(=O)(CCN(CCCN)CCCN)OCC/C=C\CCC.Cl.Cl.Cl.Cl.Cl.Cl (centres undefined)

>  <CHI>
23.4

$$$$
>  <molecule>
Cl.Cl.Cl.Cl.Cl.Cl.NCCN(CCN)CCP(=O)(OCCCCCCOP(=O)(CCN(CCN)CCN)OCCc1ccccc1)OCCc1ccccc1 (centres undefined)

>  <CHI>
30.9

$$$$
>  <molecule>
CC/C=C\CCCOP(=O)(CCN(CCCN)CCCN)OCCCOP(=O)(CCN(CCCN)CCCN)OCCC/C=C\CC.Cl.Cl.Cl.Cl.Cl.Cl (centres undefined)

>  <CHI>
25.1

$$$$

Please give the measured CHI for this molecule: CCCCCCCCCCOP(=O)(CCN(CCCN)CCCN)OCCCOP(=O)(CCN(CCCN)CCCN)OCCCCCCCCCC.Cl.Cl.Cl.Cl.Cl.Cl (centres undefined)
43.7

---

Measured MIC values are reported for all entries that follow.
Tested on: Staphylococcus epidermidis
Assay: Antibacterial activity against Staphylococcus epidermidis CCM 7221 assessed as inhibition of bacterial growth incubated for 24 hrs by microdilution assay
Assay type: functional
In your response, put the unit directly after the numeric value.

Below are worked cases with known answers.
>  <compound>
CC/C=C\CCCOP(=O)(CCN(CCCN)CCCN)OCCCCCCOP(=O)(CCN(CCCN)CCCN)OCCC/C=C\CC.Cl.Cl.Cl.Cl.Cl.Cl (stereo unspecified)

>  <reported result>
4 µg/mL

$$$$
>  <compound>
CCC/C=C\CCOP(=O)(CCN(CCCN)CCCN)OCCCCCCOP(=O)(CCN(CCCN)CCCN)OCC/C=C\CCC.Cl.Cl.Cl.Cl.Cl.Cl (stereo unspecified)

>  <reported result>
1 µg/mL

$$$$
>  <compound>
CCCCOP(=O)(CCN(CCCN)CCCN)OCCCCCCCCOP(=O)(CCN(CCCN)CCCN)OCCCC.Cl.Cl.Cl.Cl.Cl.Cl (stereo unspecified)

>  <reported result>
64 µg/mL

$$$$
>  <compound>
CC(C)COP(=O)(CCN(CCCN)CCCN)OCCCCCCCCCCCCOP(=O)(CCN(CCCN)CCCN)OCC(C)C.Cl.Cl.Cl.Cl.Cl.Cl (stereo unspecified)

>  <reported result>
1 µg/mL

$$$$
>  <compound>
Cl.Cl.Cl.Cl.Cl.Cl.NCCCN(CCCN)CCP(=O)(OCCCCCCOP(=O)(CCN(CCCN)CCCN)OCC1CCCC1)OCC1CCCC1 (stereo unspecified)

>  <reported result>
64 µg/mL

$$$$

Notebook entry, Staphylococcus epidermidis assay: MIC of CCCCCCOP(=O)(CCN(CCN)CCN)OCCCCCCCCOP(=O)(CCN(CCN)CCN)OCCCCCC.Cl.Cl.Cl.Cl.Cl.Cl (stereo unspecified) = ?
2 µg/mL

---

Tested on: Staphylococcus aureus
Test: Antibacterial activity against Staphylococcus aureus ATCC 29213 = CCM 4223 assessed as inhibition of bacterial growth incubated for 24 hrs in presence of BSA by microdilution assay
Assay type: functional
endpoint: MIC (µg/mL)
Just the number please, in µg/mL, no unit attached.

>  <compound>
CCCCC/C=C\CCOP(=O)(CCN(CCCN)CCCN)OCCCCCOP(=O)(CCN(CCCN)CCCN)OCC/C=C\CCCCC.Cl.Cl.Cl.Cl.Cl.Cl (centres undefined)

>  <reported result>
2

$$$$
>  <compound>
CCCC/C=C\CCOP(=O)(CCN(CCCN)CCCN)OCCCCCOP(=O)(CCN(CCCN)CCCN)OCC/C=C\CCCC.Cl.Cl.Cl.Cl.Cl.Cl (centres undefined)

>  <reported result>
8

$$$$
>  <compound>
CCCCCCCCOP(=O)(CCN(CCCN)CCCN)OCCCCCCCCOP(=O)(CCN(CCCN)CCCN)OCCCCCCCC.Cl.Cl.Cl.Cl.Cl.Cl (centres undefined)

>  <reported result>
0.25

$$$$
>  <compound>
CCCCCCCCOP(=O)(CCN(CCCN)CCCN)OCCCCOP(=O)(CCN(CCCN)CCCN)OCCCCCCCC.Cl.Cl.Cl.Cl.Cl.Cl (centres undefined)

>  <reported result>
2

$$$$
>  <compound>
CCCC/C=C\CCOP(=O)(CCN(CCN)CCN)OCCCCCCOP(=O)(CCN(CCN)CCN)OCC/C=C\CCCC.Cl.Cl.Cl.Cl.Cl.Cl (centres undefined)

>  <reported result>
2

$$$$

Please give the measured MIC for this compound: CCC/C=C\CCOP(=O)(CCN(CCCN)CCCN)OCCCCCCCOP(=O)(CCN(CCCN)CCCN)OCC/C=C\CCC.Cl.Cl.Cl.Cl.Cl.Cl (centres undefined)
8

Field entry: CCCCCCOP(=O)(CCN(CCCNC(=N)N)CCCNC(=N)N)OCCCCCCCCOP(=O)(CCN(CCCNC(=N)N)CCCNC(=N)N)OCCCCCC.Cl.Cl.Cl.Cl.Cl.Cl (centres undefined)
0.5

Field entry: CCCCCCCCOP(=O)(CCN(CCN)CCN)OCCCCCCOP(=O)(CCN(CCN)CCN)OCCCCCCCC.Cl.Cl.Cl.Cl.Cl.Cl (centres undefined)
5

Field entry: CCCCC/C=C\CCCOP(=O)(CCN(CCCN)CCCN)OCCCOP(=O)(CCN(CCCN)CCCN)OCCC/C=C\CCCCC.Cl.Cl.Cl.Cl.Cl.Cl (centres undefined)
2

Field entry: CCC/C=C\CCOP(=O)(CCN(CCN)CCN)OCCCCCCCOP(=O)(CCN(CCN)CCN)OCC/C=C\CCC.Cl.Cl.Cl.Cl.Cl.Cl (centres undefined)
4

Field entry: CCCCCCCCCCCCCCCCOP(=O)(CCN(CCCN)CCCN)OCC.Cl.Cl.Cl (centres undefined)
128

Field entry: CCCCOP(=O)(CCN(CCCN)CCCN)OCCCCCCCCCCCCOP(=O)(CCN(CCCN)CCCN)OCCCC.Cl.Cl.Cl.Cl.Cl.Cl (centres undefined)
16

Field entry: CCCCC/C=C\CCOP(=O)(CCN(CCCN)CCCN)OCCCCCCOP(=O)(CCN(CCCN)CCCN)OCC/C=C\CCCCC.Cl.Cl.Cl.Cl.Cl.Cl (centres undefined)
2

---

Experiment: Toxicity in rabbit assessed as maximum tolerated dose administered subcutaneously
Design: species or system Oryctolagus cuniculus
Conditions: in vivo, route sc
endpoint: MTD

Please give the measured MTD for this molecule: CCCCCCCCOP(=O)(CCN(CCCN)CCCN)OCCCCOP(=O)(CCN(CCCN)CCCN)OCCCCCCCC.Cl.Cl.Cl.Cl.Cl.Cl (stereo unspecified)
> 15 mg/kg

---

System: Staphylococcus aureus
Experiment: Antibacterial activity against wild type Staphylococcus aureus 77/CF assessed as reduction in microbial growth incubated for 24 hrs by microdilution assay
Assay type: functional
endpoint: MIC

>  <compound>
O=C(N[C@H](CO)[C@H](O)c1ccc([N+](=O)[O-])cc1)C(Cl)Cl [CHLORAMPHENICOL]

>  <reported result>
1 µg/mL

$$$$

Please give the measured MIC for this compound: CCCCCCCCOP(=O)(CCN(CCCN)CCCN)OCCCCCCOP(=O)(CCN(CCCN)CCCN)OCCCCCCCC.Cl.Cl.Cl.Cl.Cl.Cl (stereo not drawn)
0.5 µg/mL

Field entry: CC1(C)S[C@@H]2[C@H](NC(=O)[C@H](N)c3ccccc3)C(=O)N2[C@H]1C(=O)O [AMPICILLIN]
0.5 µg/mL

Field entry: O=C(O)c1cn(C2CC2)c2cc(N3CCNCC3)c(F)cc2c1=O [CIPROFLOXACIN]
0.5 µg/mL

Field entry: Cc1onc(-c2ccccc2)c1C(=O)N[C@@H]1C(=O)N2[C@@H]1SC(C)(C)[C@@H]2C(=O)O [OXACILLIN]
0.25 µg/mL

Field entry: CCCC/C=C\CCOP(=O)(CCN(CCCN)CCCN)OCCCCCOP(=O)(CCN(CCCN)CCCN)OCC/C=C\CCCC.Cl.Cl.Cl.Cl.Cl.Cl (stereo not drawn)
4 µg/mL

Field entry: CCCCCCOP(=O)(CCN(CCCNC(=N)N)CCCNC(=N)N)OCCCCCCCCOP(=O)(CCN(CCCNC(=N)N)CCCNC(=N)N)OCCCCCC.Cl.Cl.Cl.Cl.Cl.Cl (stereo not drawn)
0.5 µg/mL

Field entry: CCCCCCCCOP(=O)(CCN(CCCN)CCCN)OCCCCOP(=O)(CCN(CCCN)CCCN)OCCCCCCCC.Cl.Cl.Cl.Cl.Cl.Cl (stereo not drawn)
2 µg/mL
